Hello, the source for this data is patent US20240384350A1, in case you need it.

system-under-test: EGFR G719A/R776C (Homo sapiens, UniProt P00533, G719A/R776C)
Construct: expressed in transfected cells; host or cells: Ba/F3
assay-overview: Ba/F3 drug screening, Cell Titer Glo, IC50 Mut/WT
Type: cell-based
conditions-used: PACC; G719A/R776C; Ba/F3; 72 hours
readout-name: ratio of IC50 for cells with mutant EGFR to IC50 for cells with wildtype EGFR (Mut/WT)

Here is how some compounds turned out for ratio of IC50 for cells with mutant EGFR to IC50 for cells with wildtype EGFR (Mut/WT).
compound	reading
COc1cc2ncnc(Nc3ccc(F)c(Cl)c3)c2cc1NC(=O)/C=C/CN1CCCCC1 [Dacomitinib]	0.002518
COc1cc2ncnc(Nc3cccc(Cl)c3F)c2cc1OC(=O)N1CCN(C)C[C@H]1C [AZD3759]	0.2006
CNC(=O)CN1CCC(Oc2cc3c(Nc4cccc(Cl)c4F)ncnc3cc2OC)CC1 [Sapatinib]	0.0489

Consider the additional compound presented here.
Find the recorded ratio of IC50 for cells with mutant EGFR to IC50 for cells with wildtype EGFR (Mut/WT) belonging to CN(C)C/C=C/C(=O)Nc1cc2c(Nc3ccc(Cl)c(Br)c3)ncnc2cn1 [Tarlox-TKI] and report it. 0.03266
